Target: Endothelial lipase (EL) (Homo sapiens (Human))
Sequence (Q9Y5X9 21-500): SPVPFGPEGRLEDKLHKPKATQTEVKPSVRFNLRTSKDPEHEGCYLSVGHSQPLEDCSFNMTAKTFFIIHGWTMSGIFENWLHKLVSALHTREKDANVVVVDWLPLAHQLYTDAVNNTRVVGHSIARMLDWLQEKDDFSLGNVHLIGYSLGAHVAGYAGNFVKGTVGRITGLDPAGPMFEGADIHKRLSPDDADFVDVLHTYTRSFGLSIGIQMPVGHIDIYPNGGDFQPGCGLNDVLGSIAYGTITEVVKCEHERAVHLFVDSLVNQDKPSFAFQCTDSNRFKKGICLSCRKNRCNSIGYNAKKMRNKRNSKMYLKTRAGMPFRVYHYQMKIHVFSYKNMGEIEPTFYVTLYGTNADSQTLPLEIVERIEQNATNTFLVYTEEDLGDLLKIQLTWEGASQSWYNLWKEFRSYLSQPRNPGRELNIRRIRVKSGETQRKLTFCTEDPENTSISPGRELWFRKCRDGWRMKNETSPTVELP
Assay: EL assay: endothelial lipase activity with fluorescent substrate A10070 in DMPG vesicles
Assay type: biochemical
pIC50: −log10 of the molar value.
// reported pIC50 for each item listed

// known answers, use as guide
> print(dat)
                                   molecule  result
1  CS(=O)(=O)C(C(=O)NCCS(N)(=O)=O)c1nc2ccc(-c3ccc4c(c3)CNC4=O)cc2s1 (stereo not shown)  > 8.00
2  CS(=O)(=O)C(C(=O)NCCS(N)(=O)=O)c1nc2ccc(-c3ccc(S(=O)(=O)NCCO)cc3)cc2s1 (stereo not shown)  > 8.00
3  CS(=O)(=O)C(C(=O)NCCS(N)(=O)=O)c1nc2ccc(-c3cccc(O)n3)cc2s1 (stereo not shown)  > 8.00
4  NS(=O)(=O)CCNC(=O)C(c1nc2ccc(-c3ccc(C(=O)NC4CC4)cc3)cc2s1)S(=O)(=O)Cc1ccc(OC(F)(F)F)cc1 (stereo not shown)    9.30
5  CC(=O)Nc1ccc(-c2ccc3nc(C(C(=O)NCCS(N)(=O)=O)S(=O)(=O)Cc4ccccc4)sc3c2)cc1 (stereo not shown)  > 8.00

Summary: Cc1nnc(CNC(=O)C(c2nc3ccc(-c4ccc(C(=O)OC(C)(C)C)cc4)cc3s2)S(C)(=O)=O)s1 (stereo not shown) , Endothelial lipase (EL) (Homo sapiens (Human)), pIC50 = 7.81

Case NCCS(=O)(=O)C(C(=O)NCCS(N)(=O)=O)c1nc2ccc(-c3ccc(C(=O)N4CCOCC4)cc3)cc2s1 (stereo not shown) , Endothelial lipase (EL) (Homo sapiens (Human)), pIC50 recorded as > 8.00

---

Target: Endothelial lipase (EL) (Homo sapiens (Human))
Test: EL assay: endothelial lipase activity with fluorescent substrate A10070 in DMPG vesicles
Format: biochemical
Binarize IC50 at 0.007 µM; below is true, at or above is false.

Check out these entries, answers already filled in.
> print(dat)
                                   compound  class.label
1  NS(=O)(=O)CCNC(=O)C(c1nc2ccc(-c3ccc(C(=O)N4CCCCC4)cc3)cc2s1)S(=O)(=O)Cc1ccccc1 (centres unmarked) [Example B351]         true
2  COCCN(C)C(=O)c1ccc(-c2ccc3nc(C(C(=O)NCCS(N)(=O)=O)S(=O)(=O)CC4CC4)sc3c2)cc1F (centres unmarked) [Example B247]         true
3  NS(=O)(=O)CCNC(=O)C(c1nc2ccc(-c3cncnc3)cc2s1)S(=O)(=O)CCN1CCOCC1 (centres unmarked) [Example B315]        false
4  Cc1cc(CNC(=O)C(c2nc3ccc(-c4ccccc4)cc3s2)S(C)(=O)=O)on1 (centres unmarked) [Example B233]        false
5  Cc1nnc(CNC(=O)C(c2nc3cc(C)c(-c4cnn(CCN5CCOCC5)c4)cc3s2)S(C)(=O)=O)o1 (centres unmarked) [Example B83]        false

Qu. Consider the compound COCCNC(=O)c1ccc(-c2ccc3nc(C(C(=O)NCCS(N)(=O)=O)S(=O)(=O)Cc4ccc(OC(F)(F)F)cc4)sc3c2)cc1 (centres unmarked) [Example B113] . Is its IC50 strictly less than 0.007 µM?
Ans. true

Qu. Is 0.007 µM strictly greater than the compound's reported IC50? compound: COCc1ccc(-c2ccc3sc(C(C(=O)NCCS(N)(=O)=O)S(C)(=O)=O)nc3c2)cc1 (centres unmarked) [Example B378]
Ans. true

Qu. Item CC(C)c1cc(CNC(=O)c2ccc3nc(C(C(=O)NCCS(N)(=O)=O)S(=O)(=O)CCC(F)(F)F)sc3c2)on1 (centres unmarked) [Example B199] : IC50 beneath 0.007 µM, strictly?
Ans. false

---

Below, each entry is listed with its recorded IC50.
Target: hepatic lipase (HL) (Homo sapiens (Human), UniProt P11150)
Sequence (P11150 23-499, species assumed): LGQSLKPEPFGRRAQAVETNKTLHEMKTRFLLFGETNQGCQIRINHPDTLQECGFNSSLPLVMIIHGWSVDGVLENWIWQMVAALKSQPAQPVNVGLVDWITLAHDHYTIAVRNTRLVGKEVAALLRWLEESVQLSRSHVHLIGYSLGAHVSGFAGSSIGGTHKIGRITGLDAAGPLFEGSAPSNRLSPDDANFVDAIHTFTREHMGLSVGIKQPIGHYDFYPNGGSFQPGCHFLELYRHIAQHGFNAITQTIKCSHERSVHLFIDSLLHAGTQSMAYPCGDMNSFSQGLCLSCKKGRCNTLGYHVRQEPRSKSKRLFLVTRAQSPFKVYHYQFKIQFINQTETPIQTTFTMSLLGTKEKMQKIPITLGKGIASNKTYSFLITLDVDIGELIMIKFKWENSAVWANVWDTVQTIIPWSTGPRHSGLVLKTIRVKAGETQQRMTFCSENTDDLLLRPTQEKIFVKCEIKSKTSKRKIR
Experiment: HL assay: hepatic lipase activity with fluorescent substrate A10070 in DMPG vesicles
Type: biochemical
Give your result in nM as a bare value.

Record excerpt, results attached:
Molecule	Unit label	IC50
NS(=O)(=O)CCNC(=O)C(c1nc2ccc(C(=O)N3CCc4ccccc4C3)cc2s1)S(=O)(=O)CCC(F)(F)F (centres unmarked) [Example B201]	nM	311
CO[C@@H]1CCN(C(=O)c2ccc(-c3ccc4nc(C(C(=O)NCCS(N)(=O)=O)S(=O)(=O)Cc5ccc(OC(F)(F)F)cc5)sc4c3)cc2)C1 (some centres unmarked) [Example B354]	nM	553

Field IC50 (entry CS(=O)(=O)C(C(=O)NCCS(N)(=O)=O)c1nc2cc(-c3ncccn3)ccc2s1 (centres unmarked) [Example B374] ) reads 23.7

CC(C)(C)OC(=O)n1ccc(-c2ccc3nc(C(C(=O)NCCS(N)(=O)=O)S(C)(=O)=O)sc3c2)c1 (centres unmarked) [Example B220] has a reported IC50 of 2.8

Entry CC1(O)CN(C(=O)c2ccc(-c3ccc4nc(C(C(=O)NCCS(N)(=O)=O)S(=O)(=O)Cc5ccc(OC(F)(F)F)cc5)sc4c3)cc2)C1 (centres unmarked) [Example B323] ; IC50 = 81.7

Value of measured IC50 for the entry CC(C)(O)Cn1ccc(-c2ccc3sc(C(C(=O)NCCS(N)(=O)=O)S(C)(=O)=O)nc3c2)cc1=O (centres unmarked) [Example B389] : 6300

Just so you know, measured IC50 for NS(=O)(=O)CCNC(=O)C(c1nc2ccc(-c3ccc(CCO)cc3)cc2s1)S(=O)(=O)CCC(F)(F)F (centres unmarked) [Example B53] came out at 152

According to the records, this molecule COCc1cccc(-c2ccc3nc(C(C(=O)NCCS(N)(=O)=O)S(C)(=O)=O)sc3c2)c1 (centres unmarked) [Example B215] displays IC50 of 3.6

Form field IC50, entry NS(=O)(=O)CCNC(=O)C(c1nc2ccc(C(=O)N3CC(F)(F)C3)cc2s1)S(=O)(=O)CCC(F)(F)F (centres unmarked) [Example B200] : 10000

The measured IC50 associated with COCCNC(=O)c1ccc(-c2ccc3nc(C(C(=O)NCCS(N)(=O)=O)S(=O)(=O)Cc4ccc(F)cc4)sc3c2)cc1 (centres unmarked) [Example B112] reads 8330

Form field IC50, entry COCCNC(=O)c1ccc(-c2cc3sc(C(C(=O)NCc4nnc(C)o4)S(C)(=O)=O)nc3cc2F)cc1 (centres unmarked) [Example B266] : 948

# IC50 (molecule: COCCS(=O)(=O)NS(=O)(=O)c1cccc(CNC(=O)C(c2nc3cc(-c4ccccc4)ccc3s2)S(=O)(=O)CCOC)c1 (centres unmarked) [Example B270] ) is 212

For this molecule ( CS(=O)(=O)C(C(=O)NCCS(N)(=O)=O)c1nc2cc(-c3ccc(O)nc3)ccc2s1 (centres unmarked) [Example B195] ), measured IC50 is 105

Recorded IC50 (molecule NS(=O)(=O)CCNC(=O)C(c1nc2ccc(-c3cccc(C(=O)N4CCC(F)(F)CC4)c3)cc2s1)S(=O)(=O)CCC(F)(F)F (centres unmarked) [Example B343] ): 38.1

---

Target: hepatic lipase (HL) (Homo sapiens (Human), UniProt P11150)
Test: HL assay: hepatic lipase activity with fluorescent substrate A10070 in DMPG vesicles
Type: biochemical
Parameter measured: pIC50
To interpret pIC50, take it as minus log10 of a concentration measured in moles per litre.

Molecule	Measured number
CC(C)(C)OC(=O)c1ccc(-c2ccc3nc(C(C(=O)N[C@@H]4CCNC4=O)S(=O)(=O)Cc4ccccc4)sc3c2)cc1 (some centres unmarked) [Example B386]	7.84
CS(=O)(=O)C(C(=O)NCCS(N)(=O)=O)c1nc2cc(-c3ccc(F)nc3F)ccc2s1 (centres unmarked) [Example B385]	7.69
COC1CN(C(=O)c2ccc(-c3ccc4nc(C(C(=O)NCCS(N)(=O)=O)S(=O)(=O)Cc5ccc(C(F)(F)F)cc5)sc4c3)cc2)C1 (centres unmarked) [Example B299]	7.13
Cc1nnc(CNC(=O)C(c2nc3ccc(-c4cccc(N(C)C)c4)cc3s2)S(=O)(=O)Cc2ccccc2)o1 (centres unmarked) [Example B255]	7.36

Note to self: pIC50 of CC(=O)Nc1ccc(-c2ccc3nc(C(C(=O)NCCS(N)(=O)=O)S(=O)(=O)CCC(F)(F)F)sc3c2)cc1 (centres unmarked) [Example B236] with hepatic lipase (HL) (Homo sapiens (Human), UniProt P11150) was 7.26

Lab note: molecule Cc1cc2nc(C(C(=O)NCCS(N)(=O)=O)S(C)(=O)=O)sc2cc1-c1ccc(C(=O)N2CC(C)(O)C2)cc1 (centres unmarked) [Example B349] tested on hepatic lipase (HL) (Homo sapiens (Human), UniProt P11150); recorded pIC50 was 6.46

---

IC50 for assorted compounds
Target: hepatic lipase (HL) (Homo sapiens (Human), UniProt P11150)
Test: HL assay: hepatic lipase activity with fluorescent substrate A10070 in DMPG vesicles
Type: biochemical
Give the value in nM but do not write nM after it.

# annotated cases, reported IC50 shown
> print(dat)
                                   compound                             target.system  unit.label  measured.number
1  Cc1cc2nc(C(C(=O)NCCS(N)(=O)=O)S(C)(=O)=O)sc2cc1-c1ccc(C(=O)OC(C)(C)C)cc1 (stereo not shown) [Example B274]  hepatic lipase (HL) (Homo sapiens (Human), UniProt P11150)          nM              5.1
2  NC(=O)c1ccc(-c2ccc3nc(C(C(=O)NCCS(N)(=O)=O)S(=O)(=O)Cc4ccc(OC(F)(F)F)cc4)sc3c2)cc1 (stereo not shown) [Example B227]  hepatic lipase (HL) (Homo sapiens (Human), UniProt P11150)          nM             80.8
3  CS(=O)(=O)C(C(=O)NCCS(N)(=O)=O)c1nc2ccc(-c3cncnc3)cc2s1 (stereo not shown) [Example B146]  hepatic lipase (HL) (Homo sapiens (Human), UniProt P11150)          nM              916
4  CS(=O)(=O)C(C(=O)NCCS(N)(=O)=O)c1nc2ccc(-c3ccc(C(=O)N4CCC(F)(F)C4)cc3)cc2s1 (stereo not shown) [Example B169]  hepatic lipase (HL) (Homo sapiens (Human), UniProt P11150)          nM               91

Consider COc1ccc(-c2cc3sc(C(C(=O)NCc4nnc(C)o4)S(=O)(=O)Cc4ccccc4)nc3cc2C)cn1 (stereo not shown) [Example B97] . Its measured IC50 is 57

What the record says about CS(=O)(=O)C(C(=O)NCCS(N)(=O)=O)c1nc2cc(C(=O)NCCc3ccc(F)cc3)ccc2s1 (stereo not shown) [Example B394] : IC50 is 1600
